- targetUnderTest: SARS-COV2-S1 RBD (mouse IgG2Fc tag) (SARS-CoV-2, UniProt P0DTC2 319-537)
metric: pIC50
API: returns pIC50 as number; meaning -log10 of concentration in mol/L.

As a guide, the following entries are already answered.
variant 5-29 (Fc fusion) VHH: EVQLVESGGGLVQPGGSLRLSCAASGFTFDDYPMGWFRQAPGKEREGVASVLRGGYTWYADSVKGRFTISADNSKNTAYLQMNSLKPEDTAVYYCAKDWATGLAWGQGTLVTVSS | 8.66
variant 5-67 (Fc fusion) VHH: EVQLVESGGGLVQPGGSLRLSCAASGFNVNDYAMGWFRQAPGKEREFVAGITSSVGVTNYADSVKGRFTISADNSKNTAYLQMNSLKPEDTAVYYCAADIFFVNWGRGTLVTVSS | 9.12

Input line: Give me measured pIC50, please, for this binder: variant 5-47 (Fc fusion) VHH: EVQLVESGGGLVQPGGSLRLSCAASGFTFGSYDMGWFRQAPGKEREFVTAINWSGARTAYADSVKGRFTISADNSKNTAYLQMNSLKPEDTAVYYCAARSVYSYEYNWGQGTLVTVSS
Output line: 9.10

Input line: Give me measured pIC50, please, for this binder: variant 5-49 (Fc fusion) VHH: EVQLVESGGGLVQPGGSLRLSCAASGRTSTVNGMGWFRQAPGKEREFVASISQSGAATAYADSVKGRFTISADNSKNTAYLQMNSLKPEDTAVYYCAADRTYSYSSTGYYWGQGTLVTVSS
Output line: 8.25

Input line: Give me measured pIC50, please, for this binder: variant 5-15 (Fc fusion) VHH: EVQLVESGGGLVQPGGSLRLSCAASGFTFDGAAMGWFRQAPGKEREFVATIRWTNSTDYADSVKGRFTISADNSKNTAYLQMNSLKPEDTAVYYCARGRYGIVERWGQGTLVTVSS
Output line: 8.66

Input line: Give me measured pIC50, please, for this binder: variant 5-56 (Fc fusion) VHH: EVQLVESGGGLVQPGGSLRLSCAASGRTFSSNMGWFRQAPGKEREFVARIFGGDRTLYADSVKGRFTISADNSKNTAYLQMNSLKPEDTAVYYCADINGDWGQGTLVTVSS
Output line: 9.17

Data origin: patent US20210355194A1
